Origin of values: patent US7115690B2

# EXPERIMENT SUMMARY: Measurement of pKa value by NaOH titration in water/acetone
# CONDITION INFO: water/acetone mixture (10/15 ml), (2) pKa, titration with about 0.2 mol/liter NaOH in water/acetone, corrected with blank
Readings of pKa for the listed compounds
MEASUREMENT TYPE: pKa

OC(C(F)(F)F)(C(F)(F)F)C1(F)CC2C=CC1C2 (stereo not shown) | 9
OC1(C(F)(F)F)C2C=CC(C2)C1(F)F (stereo not shown) | 11.5
OC(C1C=CCC1)(C(F)(F)F)C(F)(F)F (stereo not shown) [Example 12, cyclopentene having —C(CF3)2OH group] | 9.8
OC(C1CC2C=CC1C2)(C(F)(F)F)C(F)(F)F (stereo not shown) | 10.2
